Ref: patent US9115101B2

- experimentalSystem: RORc ligand binding domain (Homo sapiens, UniProt P51449)
- Construct: host or cells: E. coli
- Sequence (P51449 269-508 limits assumed): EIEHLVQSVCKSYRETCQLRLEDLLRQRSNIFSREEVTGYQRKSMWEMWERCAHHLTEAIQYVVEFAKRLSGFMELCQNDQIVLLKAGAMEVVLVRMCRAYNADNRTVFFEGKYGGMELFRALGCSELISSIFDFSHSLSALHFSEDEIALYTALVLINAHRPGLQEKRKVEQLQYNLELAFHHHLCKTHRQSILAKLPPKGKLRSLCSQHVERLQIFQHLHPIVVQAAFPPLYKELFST
- runDescription: In Vitro RORc Ligand Binding Assay (25-[3H]hydroxycholesterol radioligand filtration)
- recordedConditions: In Vitro RORc Ligand Binding Assay; Table 4; read-out: RORc IC50
Some compounds, each annotated with its measured IC50.
measurementLabel: IC50 (nM)

[[record]]
compound = "CCCNC(=O)[C@@H]1CN(c2ccc(CN3[C@@H](C)CCC(c4ccccc4)S3(=O)=O)c(F)c2)CCN1C(C)=O (stereo partly shown)"
unitabbreviation = "nM"
numericreadout = 287

[[record]]
compound = "CC1CC(=O)C=C(N2CCN(c3ccc(CN4[C@@H](C)CCC(c5ccccc5)S4(=O)=O)c(F)c3)CC2)C1 (stereo partly shown)"
unitabbreviation = "nM"
numericreadout = 179

[[record]]
compound = "C[C@H]1CCC(c2ccccc2)S(=O)(=O)N1Cc1ccc(N2CCC(c3ncno3)CC2)cc1F (single isomer, unassigned) [Example 219]"
unitabbreviation = "nM"
numericreadout = 42

[[record]]
compound = "O=S1(=O)C(c2ccccc2)CC2(CC2)CN1Cc1ccc(N2CCC(n3cnnc3)CC2)cc1F (single isomer, unassigned) [Example 257]"
unitabbreviation = "nM"
numericreadout = 54

[[record]]
compound = "C[C@H]1CCC(c2ccccc2)S(=O)(=O)N1Cc1ccc(N2CCC(n3ccnn3)CC2)cc1F (single isomer, unassigned) [Example 256]"
unitabbreviation = "nM"
numericreadout = 4

[[record]]
compound = "C[C@H]1CCC(c2ccccc2)S(=O)(=O)N1Cc1ccc(C(=O)N2CCOC(C(=O)N(C)C)C2)cc1 (stereo partly shown)"
unitabbreviation = "nM"
numericreadout = 8310

[[record]]
compound = "CC[C@H]1CCC(c2ccccc2)S(=O)(=O)N1Cc1ccc(NC2CCN(S(C)(=O)=O)CC2)cc1F (single isomer, unassigned) [Example 239]"
unitabbreviation = "nM"
numericreadout = 3

[[record]]
compound = "C[C@H]1CCC(c2ccccc2)S(=O)(=O)N1Cc1ccc(N2CCCNCC2)cc1F (single isomer, unassigned) [Example 89]"
unitabbreviation = "nM"
numericreadout = 1250

[[record]]
compound = "C[C@H]1CCC(c2ccccc2)S(=O)(=O)N1Cc1ccc(C(=O)NC2CCC(O)CC2)cc1 (stereo partly shown)"
unitabbreviation = "nM"
numericreadout = 4410

[[record]]
compound = "C[C@H]1CCC(c2ccccc2)S(=O)(=O)N1Cc1ccc(C(=O)N2CC(c3cc[nH]n3)C2)cc1 (stereo partly shown)"
unitabbreviation = "nM"
numericreadout = 2690

[[record]]
compound = "CC(=O)N1CCN(c2ccc(CN3[C@H](C)CC(c4ccccc4)S3(=O)=O)c(F)c2)CC1 (stereo partly shown) [Example 349]"
unitabbreviation = "nM"
numericreadout = 310

[[record]]
compound = "CC(=O)N1CCN(c2ccc(CN3[C@@H](C)CCC(c4ccccc4)S3(=O)=O)c(Cl)c2)CC1 (stereo partly shown)"
unitabbreviation = "nM"
numericreadout = 1580

[[record]]
compound = "CO[C@@H](C)C(=O)N1CCCN(c2ccc(CN3[C@@H](C)CCC(c4ccccc4)S3(=O)=O)c(F)c2)CC1 (single isomer, unassigned) [Example 90]"
unitabbreviation = "nM"
numericreadout = 76

